For each entry below, report its Giant foxtail plant response rating value.
Test system: giant foxtail
Assay: Test B pre/postemergence giant foxtail
Assay type: in vivo, Setaria faberii
Conditions: Preemergence, Rate 500 g/ha; scale 0 to 10, 0 is no effect, 10 is complete control
Procedure: […] At the same time, these crop and weed species were also treated with postemergence applications of test chemicals formulated in the same manner. […] Treated plants and controls were maintained in a greenhouse for twelve to sixteen days, after which all species were compared to controls and visually evaluated. […]
Returns: the value as a bare number; no unit string appended.

Would you kindly share the measured Giant foxtail plant response rating for CC(C)N(C(=O)n1oc(=O)n(C2CCCCCC2)c1=O)C1=CCCCC1 ?
10

Would you kindly share the measured Giant foxtail plant response rating for CC(C)N(C(=O)n1oc(=O)n(C2CCOCC2)c1=O)c1ccccc1 ?
10

Would you kindly share the measured Giant foxtail plant response rating for COCC(OC)n1c(=O)on(C(=O)N(c2ccc(F)cc2)C(C)C)c1=O (stereo not drawn) ?
10
